assayExplanation: Toxicity liver stage against HepG2, at 10uM
Type: cell-based
Set-up: test concentration 10 uM, cell line HepG2-A16-CD81EGFP
conditionDetails: human, HepG2-A16-CD81EGFP cells; read-out: INHIBITION
Attribute: cytotoxicity at 10 µM
endpoint: cytotoxicity at 10 µM (%)

>>> datavalue("CC(C)Cc1noc(CN2CCN(CCOc3ccc(Cl)cc3)CC2)n1")
24
>>> datavalue("CCc1cc(=O)[nH]c2nnc(SCC(=O)N3CCC(C)CC3)n12")
-5.43
>>> datavalue("COCC1c2c(cnn2CC2CCOCC2)CCN1Cc1ccoc1 (stereo not given)")
-20
>>> datavalue("CCNc1ncc(C(=O)NCCc2csc(CSC)n2)cn1")
-5.63
>>> datavalue("Cc1nnc(NC(=O)CSCc2cc(=O)n3ccccc3n2)s1")
1.5
>>> datavalue("CCCC1(CO)CCCN(c2ncnc3c2c(C)nn3C)C1 (stereo not given)")
2.72
>>> datavalue("c1cc(-c2ccc3c(c2)CCC32CCNCC2)ccn1")
8.86
>>> datavalue("c1cnc(NC2COC3(CCN(Cc4nccs4)CC3)C2)cn1 (stereo not given)")
-79.9
>>> datavalue("Cn1nc(Cn2cccn2)c2c1CN(Cc1ccoc1)C2")
-3.77
>>> datavalue("CC(=O)c1csc(-c2csc(Cn3ccc(=O)[nH]c3=O)n2)c1")
5.39
>>> datavalue("Cc1ccsc1CN1CCC(c2nnc(Cn3cccn3)n2C)CC1")
-2.97
>>> datavalue("CCc1[nH]c2ccc(CNC(=O)c3cnc(N)nc3C)cc2c1C")
-3.56
>>> datavalue("Cc1nnc2n1CCN(CCOc1ccccc1)C2")
2.24
>>> datavalue("Nc1nc(N)c2c(n1)OC1(COCCN(Cc3nccs3)C1)C2 (stereo not given)")
-0.56
>>> datavalue("CCN(Cc1nc2c(cnn2C)c(=O)[nH]1)c1cc(C)cc(C)c1")
-5.83
>>> datavalue("COc1ccc(CNC(=O)CCc2c(C)noc2C)cc1F")
-6.87
>>> datavalue("CN(C)CC1CN(Cc2ccc(-n3cccn3)cc2)CCO1 (stereo not given)")
4.09
>>> datavalue("O=C(NCC1SCCc2ccccc21)c1cscn1 (stereo not given)")
-1.88
>>> datavalue("CSCCC(=O)N1CCCN(c2ccccc2C)CC1")
-9.31
>>> datavalue("CCOC(=O)CCC(=O)N1CCC(Oc2ncccc2Cl)CC1")
-5.57
>>> datavalue("O=C(NCCN1CCOCC1)c1ccn(COc2ccc(F)cc2)n1")
6.17
>>> datavalue("Cn1c2c(c(=O)n1C)CN(C(=O)c1ccco1)CCC2")
10.5
>>> datavalue("Cc1nnc(N2C[C@H](C(=O)NCC3CC3)[C@@H]3CCO[C@@H]3C2)s1")
17.1
>>> datavalue("C[C@@H]1CN(C2Cc3ccccc3C2)CC[C@@]1(O)C1CCOCC1")
-4.04
>>> datavalue("CC(NCC1CCN(CCO)CC1)c1cccnc1 (stereo not given)")
-5.6

----------
Attribute: cytotoxicity at 10 µM
assayExplanation: Toxicity liver stage against HepG2, at 10uM
Assay type: cell-based
Set-up: test concentration 10 uM, cell line HepG2-A16-CD81EGFP
conditionDetails: human, HepG2-A16-CD81EGFP cells; read-out: INHIBITION
endpoint: cytotoxicity at 10 µM

>>> datavalue("Cc1ccc(CCCC(=O)N2CCC(=O)Nc3cccnc32)s1")
"-60.7%"
>>> datavalue("CCC(=O)Nc1cccc(OCC(=O)N2CC=CC2C(C)C)c1 (stereo unspecified)")
"-0.115%"
>>> datavalue("COCCN1C(=O)CC(c2cccnc2)C12CCN(C(=O)C1CC1)CC2 (stereo unspecified)")
"-104%"
>>> datavalue("COc1cccc(CN2CCCC(Cn3nc(C)nc3C)C2)c1 (stereo unspecified)")
"-13.4%"
>>> datavalue("COc1ccccc1Oc1ncccc1CNC(=O)C(C)N1CCCC1 (stereo unspecified)")
"-5.39%"
>>> datavalue("CN(Cc1cccs1)C1CCC[C@@H]2CN(C(=O)c3cnccn3)C[C@H]12 (stereo partly specified)")
"16.7%"

----------
assayExplanation: Toxicity liver stage against HepG2, at 10uM
Format: cell-based
Set-up: test concentration 10 uM, cell line HepG2-A16-CD81EGFP
conditionDetails: human, HepG2-A16-CD81EGFP cells; read-out: INHIBITION
Attribute: cytotoxicity at 10 µM
endpoint: cytotoxicity at 10 µM (%)

>>> datavalue("Cc1ccc(C)c(NC(=O)Nc2c[nH]c(=O)[nH]c2=O)c1")
0.0452
>>> datavalue("CCc1ccccc1CNC(=O)NCc1cnn(C)c1")
2.14
>>> datavalue("COc1cc(-c2cccc3c2OC(CN)C3)ccc1O (centres undefined)")
-51.9
>>> datavalue("COc1ccc2c(c1)nc1n2[C@@H](CNCc2cnn(C)c2)COC1")
-6.8
>>> datavalue("CS(=O)(=O)N1CC[C@]2(C[C@@H](Oc3ccccn3)CO2)C1")
-144
>>> datavalue("CC1c2ncc(CNC(=O)C3CC3)n2CCN1Cc1nccs1 (centres undefined)")
-5.43
>>> datavalue("CCC(C(=O)N(C)C)N1CCC(c2nccn2Cc2cscn2)CC1 (centres undefined)")
2.86
>>> datavalue("Cc1nccn1C1CCCN(C(=O)Cn2ccc(=O)n(C)c2=O)C1 (centres undefined)")
-5.17
>>> datavalue("O=C(Nc1ccccc1)N1CCC2(CC(=O)N(c3ccsc3)C2)C1 (centres undefined)")
2.58
>>> datavalue("Cc1ccc(S(=O)(=O)Nc2ccc(N3CCSCC3)c(C(=O)O)c2)s1")
3.54
>>> datavalue("O=C(Cc1csc(-c2ccccc2Cl)n1)NCc1cccc(C(=O)O)c1")
-3.67
>>> datavalue("CCc1nc(C2CCCN(C(=O)c3ccncc3)C2)no1 (centres undefined)")
-13
>>> datavalue("COc1cc(N2C[C@H]3CN(Cc4ccccn4)C[C@H]3C2)ncn1")
-96.3
>>> datavalue("Cc1noc(C)c1CN1CCOC(CNc2cccnn2)C1 (centres undefined)")
-19
>>> datavalue("Cc1ccc(C(=O)NCCNCC2CNc3ccnn3C2)cc1 (centres undefined)")
7.41
>>> datavalue("CCc1cc(C(=O)N2CCC3(CCCN(CCOC)C3=O)C2)cs1 (centres undefined)")
-146
>>> datavalue("Cc1ccc(C(=O)NS(=O)(=O)c2cc(Cl)ccc2Cl)c(=O)[nH]1")
-5.72
>>> datavalue("CCN(C)C(=O)Nc1cc(F)c(OC)cc1F")
-10.4
>>> datavalue("COc1cccc(-n2cc(-c3ccnc(N[C@H](CO)C(C)C)n3)cn2)c1")
-2.04
>>> datavalue("O=C(c1ccc2cccnc2n1)N(Cc1ccsc1)CC1CCCO1 (centres undefined)")
-15.1
>>> datavalue("O[C@@H]1CCN(CC2CC2)[C@H]1Cc1ccccc1")
3.57
>>> datavalue("CCN(CC)c1ccc(C(=O)N(C)Cc2c(C)noc2C)cn1")
-5.38
>>> datavalue("CC(C)CNC(=O)CC1OCCc2ccsc21 (centres undefined)")
-3.49
>>> datavalue("CC(C)(C)c1n[nH]c(C2CN(C(=O)CCc3cccs3)CCO2)n1 (centres undefined)")
-10.6

----------
Attribute: cytotoxicity at 10 µM
assayExplanation: Toxicity liver stage against HepG2, at 10uM
Type: cell-based
Parameters: test concentration 10 uM, cell line HepG2-A16-CD81EGFP
conditionDetails: human, HepG2-A16-CD81EGFP cells; read-out: INHIBITION
endpoint: cytotoxicity at 10 µM (%)

>>> datavalue("Cc1csc(N(C)C(=O)C2CC(=O)N(c3ccccc3F)C2)n1 (stereo unspecified)")
9.95
>>> datavalue("COc1ccccc1-n1nc(-c2ccco2)n(CC(N)=O)c1=O")
0.5
>>> datavalue("Cc1nc2c(c(N(C)C)n1)CCN(C(=O)CN1CCC(O)CC1)C2")
3.6
>>> datavalue("CN(Cc1ccc2nsnc2c1)C(=O)CCc1cc2n(n1)CCCNC2")
-4.62
>>> datavalue("O=S(=O)(CCO)Cc1ccc(OCC(F)(F)F)cc1")
2.23
>>> datavalue("Cc1cc(C(=O)NCC2COCc3c(C)nnn3C2)no1 (stereo unspecified)")
-7.32

----------
Attribute: cytotoxicity at 10 µM
assayExplanation: Toxicity liver stage against HepG2, at 10uM
Type: cell-based
Set-up: test concentration 10 uM, cell line HepG2-A16-CD81EGFP
conditionDetails: human, HepG2-A16-CD81EGFP cells; read-out: INHIBITION
endpoint: cytotoxicity at 10 µM (%)

>>> datavalue("Cc1ccccc1-n1ncc2c(=O)n(CCN3CCCCC3)cnc21")
-8.47
>>> datavalue("Cc1noc(C)c1-c1cccc(C2CN(S(=O)(=O)N(C)C)CCO2)n1 (stereo unspecified)")
11.4
>>> datavalue("CCOc1ccc(CNCCCn2ccnc2)cc1OC")
-4.78
>>> datavalue("CN1CCOCC12CCN(c1nncs1)CC2")
8.16
>>> datavalue("O=C(C1CCOCC1)N1CCOC(CC2CCCCC2)C1 (stereo unspecified)")
-5.56
>>> datavalue("CN(CCC(F)(F)F)C(=O)[C@H]1CSCN1C(=O)OC(C)(C)C")
-9.39

Sourced from ChEMBL document CHEMBL4513216
